- tgt: EZH2/SUZ/EED (Homo sapiens, UniProt O75530+Q15022+Q15910)
- Sequence (Q15910 2-746 limits assumed): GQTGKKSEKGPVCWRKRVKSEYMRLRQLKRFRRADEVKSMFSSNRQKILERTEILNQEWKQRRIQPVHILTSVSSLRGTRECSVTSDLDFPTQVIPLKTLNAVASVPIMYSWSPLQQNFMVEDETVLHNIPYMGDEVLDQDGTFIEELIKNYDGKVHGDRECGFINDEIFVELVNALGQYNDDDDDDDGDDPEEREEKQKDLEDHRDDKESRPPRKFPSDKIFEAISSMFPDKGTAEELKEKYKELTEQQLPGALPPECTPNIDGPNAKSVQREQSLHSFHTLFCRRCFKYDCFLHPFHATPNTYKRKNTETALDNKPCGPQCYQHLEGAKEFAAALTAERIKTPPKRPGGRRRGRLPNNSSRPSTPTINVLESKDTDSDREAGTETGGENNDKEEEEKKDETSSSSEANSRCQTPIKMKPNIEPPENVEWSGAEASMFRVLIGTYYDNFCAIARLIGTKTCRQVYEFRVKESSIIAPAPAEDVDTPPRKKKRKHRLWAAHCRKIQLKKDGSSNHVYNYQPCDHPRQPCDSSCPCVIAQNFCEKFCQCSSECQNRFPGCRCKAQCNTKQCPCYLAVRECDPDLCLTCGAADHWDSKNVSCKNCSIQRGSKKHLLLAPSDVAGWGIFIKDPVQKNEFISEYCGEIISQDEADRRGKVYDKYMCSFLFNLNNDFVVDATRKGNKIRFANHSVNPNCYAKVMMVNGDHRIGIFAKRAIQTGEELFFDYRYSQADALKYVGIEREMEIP
- Sequence (Q15022 2-739 partner limits assumed): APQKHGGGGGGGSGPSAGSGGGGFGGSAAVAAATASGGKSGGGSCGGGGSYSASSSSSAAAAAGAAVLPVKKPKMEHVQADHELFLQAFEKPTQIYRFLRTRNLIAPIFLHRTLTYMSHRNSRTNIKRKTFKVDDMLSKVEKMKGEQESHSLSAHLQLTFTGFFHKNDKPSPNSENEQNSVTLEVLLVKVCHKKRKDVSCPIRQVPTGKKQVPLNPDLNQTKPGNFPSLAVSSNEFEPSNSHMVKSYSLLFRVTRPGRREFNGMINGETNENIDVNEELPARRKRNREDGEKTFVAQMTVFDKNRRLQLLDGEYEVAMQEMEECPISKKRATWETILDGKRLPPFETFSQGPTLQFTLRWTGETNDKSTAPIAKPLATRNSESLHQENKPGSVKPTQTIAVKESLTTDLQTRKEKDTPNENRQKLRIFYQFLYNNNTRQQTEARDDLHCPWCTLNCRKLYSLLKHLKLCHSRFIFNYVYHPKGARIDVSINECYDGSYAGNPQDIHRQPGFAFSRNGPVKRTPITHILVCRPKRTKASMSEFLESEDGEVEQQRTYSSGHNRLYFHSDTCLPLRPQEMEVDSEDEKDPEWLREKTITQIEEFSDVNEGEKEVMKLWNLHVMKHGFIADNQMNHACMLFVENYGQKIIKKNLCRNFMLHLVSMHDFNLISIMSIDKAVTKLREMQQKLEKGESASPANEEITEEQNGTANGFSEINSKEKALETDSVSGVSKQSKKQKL
- Sequence (O75530 2-441 partner limits assumed): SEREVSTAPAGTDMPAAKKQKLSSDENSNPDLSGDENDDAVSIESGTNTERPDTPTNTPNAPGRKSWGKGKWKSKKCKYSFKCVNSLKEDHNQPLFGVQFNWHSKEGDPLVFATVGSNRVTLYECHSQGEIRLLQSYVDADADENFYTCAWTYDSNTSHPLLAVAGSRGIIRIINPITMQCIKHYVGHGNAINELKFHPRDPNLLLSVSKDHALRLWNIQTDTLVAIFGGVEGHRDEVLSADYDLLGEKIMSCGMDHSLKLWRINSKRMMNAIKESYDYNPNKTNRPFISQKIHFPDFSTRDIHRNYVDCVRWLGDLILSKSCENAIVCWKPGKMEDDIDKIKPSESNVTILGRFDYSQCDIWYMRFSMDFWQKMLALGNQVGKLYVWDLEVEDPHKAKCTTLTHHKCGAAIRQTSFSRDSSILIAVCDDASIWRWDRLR
- method-description: Inhibitory effect on EZH2 by the MTase-Glo method (Test Example 1)
- condition-context: EZH2/SUZ/EED 6.25 nM, H3 peptide 10 μM, SAM 3 μM, 30° C. 3 h, read-out: Test Example 1 WT EZH2 IC50
- Description: The compound was dissolved in DMSO, and the compound was serially diluted using ECHO665 and transferred to a 384-well reaction plate (Corning, 3824). […] After incubation, read with BMG PHERAStar. The luminescence signals obtained by positive control (maximum signal control) and negative control (minimum signal control) were normalized to obtain the inhibition rate of different concentrations of compounds. […]
pIC50: −log10 of the molar value.
# Lookup of reported pIC50 keyed by entry
experimental-endpoint: pIC50

# compound, experimental-endpoint, observed-measurement
measured = [
    ("COCCOC1CN([C@H]2CC[C@@H]([C@H]3COc4c(Cl)cc(C(=O)NCc5c(OC)cc(C)[nH]c5=O)c(C)c4O3)CC2)C1 [Compound 101]", "pIC50", 8.51),
    ("Cc1cc(C)c(CNC(=O)c2cc(Cl)c3c(c2C)OC[C@@H]([C@H]2CC[C@@H](N(C)C)CC2)O3)c(=O)[nH]1 [Compound 55]", "pIC50", 8.35),
    ("Cc1cc(C)c(CNC(=O)c2cc(Cl)c3c(c2Cl)OC[C@@H]([C@H]2CC[C@H](N(C)C)CC2)O3)c(=O)[nH]1 [Compound 148]", "pIC50", 7.17),
    ("Cc1cc(C)c(CNC(=O)c2cc(Cl)c3c(c2C)O[C@H](C2CCN(C4COC4)CC2)CO3)c(=O)[nH]1 [Compound 89]", "pIC50", 5.73),
    ("CSc1cc(C)[nH]c(=O)c1CNC(=O)c1cc(Cl)c2c(c1C)O[C@@H]([C@H]1CC[C@H](N3CC4(COC4)C3)CC1)CO2 [Compound 29]", "pIC50", 8.48),
    ("[2H]C1(OC)CN([C@H]2CC[C@@H]([C@H]3COc4c(Cl)cc(C(=O)NCc5c(SC)cc(C)[nH]c5=O)c(C)c4O3)CC2)C1 [Compound 22]", "pIC50", 8.68),
    ("COc1cc(C)[nH]c(=O)c1CNC(=O)c1cc(Cl)c2c(c1C)O[C@@H]([C@H]1CC[C@H](N3CC(OC)C3)CC1)CO2 [Compound 98]", "pIC50", 8.24),
    ("COC1C2CN([C@H]3CC[C@@H]([C@H]4COc5c(Cl)cc(C(=O)NCc6c(SC)cc(C)[nH]c6=O)c(C)c5O4)CC3)CC21 (stereo partly drawn) [Compound 43]", "pIC50", 8.44),
    ("CSc1cc(C)[nH]c(=O)c1CNC(=O)c1cc(Cl)c2c(c1C)O[C@@H]([C@H]1CC[C@@H](NC3(CF)COC3)CC1)CO2 [Compound 36]", "pIC50", 8.62),
    ("Cc1cc(C)c(CNC(=O)c2cc(Cl)c3c(c2C)OC(C2CCC(NC4CC(F)C4)CC2)CO3)c(=O)[nH]1 (single isomer, unassigned) [Compound 64]", "pIC50", 7.78),
    ("Cc1cc(C)c(CNC(=O)c2cc(Cl)c3c(c2C)O[C@H]([C@H]2CC[C@@H](N4CC5COCC5C4)CC2)CO3)c(=O)[nH]1 (stereo partly drawn) [Compound 74]", "pIC50", 6.00),
    ("CSc1cc(C)[nH]c(=O)c1CNC(=O)c1cc(Cl)c2c(c1C)O[C@@H]([C@H]1CC[C@H](N3CCN(C)CC3)CC1)CO2 [Compound 19]", "pIC50", 8.47),
]

// data source = patent US20260184697A1
